Measured values drawn from patent US20250263466A1 for this set.

- Tested System: SARS-CoV S protein (Urbani strain) expressed on ExpiCHO cells (SARS-CoV, UniProt P59594 14-1255)
- Protocol Description: flow cytometry on ExpiCHO cells transfected with SARS-CoV S

Binder	binding result
nCoV-2 mAb (antibody, V domains shown) VH: DVQLLESGGGLVQPGGSLRLSCAASGFSFSSYAMTWVRQAPGKGLEWVATMSASGDSTNDADSVKGRFTISRDNSKNTLFLQMNSLRPEDTAVYYCASPLRNYGDLLYWGQGTLVTVSS VL: DIQMTQSPSTLSASVGDRVTITCRASQNIHRFLAWYQQKPGKAPKLLIYTASSLESGVPSRFSGSGFGTEFTLTISSLQPDDFATYYCQQYNSYSWTFGQGTKVEIK	binds
nCoV-14 mAb (antibody, V domains shown) VH: QVQLVHSGAEVKKPGASVRVSCKASGYTYTAYYIHWLRQAPGQGLEWMGWINADNGDTHSVQKFQGRVTMTRDTSINTAYLEVSRLKSDDTAVYYCARGDVPVGTGWVFDFWGQGTLVTVSS VL: DIQMTQSPSSLSASVGDSVTISCRASQTINNFLNWYQQKPGKAPNLLIYGAYNLQSGVPSRFSGSGSGTDFTLTISSLQPEDVAIYYCQQSLSMVTFGQGTRLDIK	binds
nCoV-12 mAb (antibody, V domains shown) VH: QVQLVESGGGVVQPGRSLRLSCAGSGFTFSSFGLHWVRQAPGKGLEWLALISDEGRIKYYANSVKGRFFISRDNSKNTLYLQMNSLRGEDTAVYYCARDVKGHIVVMTSLDYWGQGALVTVSS VL: DVVMTQSPLSLPVTLGQPASISCRSSQSLVSSDGDTSLSWFQQRPGQSPRRLIYEVSNRDSGVPDRFSGSGSGTDFTLKISRVEAEDVGVYYCMQGTHWPPTFGQGTKVEIK	binds
